Where these numbers come from: the array DNA melting data of Ke et al. (doi:10.1101/2024.01.08.574731)

Measured folding enthalpy, listed per entry.
measurement-notes: folding enthalpy; higher = less favourable; fluorescence melt of hairpins on a sequencing array, two-state fit
applied-conditions: sodium 0.088 M
Numeric only. Scale: kcal/mol

INSERT INTO results (sequence_input, experimental_endpoint, unit_tag, reported_value) VALUES
  ('GTCGGTCGAAAGACGAC (((.(((....))))))', 'folding enthalpy', 'kcal/mol', -29.2),
  ('GTTGAGGCGAAAGCCAAC (((..(((....))))))', 'folding enthalpy', 'kcal/mol', -14.6),
  ('GTGAGCGAAAGCTACCAC ((((((....)))..)))', 'folding enthalpy', 'kcal/mol', -10.5),
  ('GGTCTTGGAAACAAGGCC ((.((((....)))).))', 'folding enthalpy', 'kcal/mol', -48.6),
  ('GAGTCCGGAAACGGGCTC (((.(((....))).)))', 'folding enthalpy', 'kcal/mol', -33),
  ('GCCTTCGAAAGAAGGGGC ((((((....)))..)))', 'folding enthalpy', 'kcal/mol', -17.8),
  ('GTTAGGCGAAAGCCGAAC (((.(((....))).)))', 'folding enthalpy', 'kcal/mol', -19.6),
  ('GTTGTGGGAAACCACAAC (((((((....)))))))', 'folding enthalpy', 'kcal/mol', -46),
  ('GCGCGAGGAAACTCGTGC ((.((((....)))).))', 'folding enthalpy', 'kcal/mol', -42.3),
  ('GATCGTCGTACGATC ((((((...))))))', 'folding enthalpy', 'kcal/mol', -29.3);

With those in mind, consider the next sequence.
Q: If you can, please state the reported folding enthalpy value of GCATGCCGAAAGGCCTGC (((.(((....))).))) .
Ans: -31.6

###

measurement-notes: folding enthalpy; higher = less favourable; fluorescence melt of hairpins on a sequencing array, two-state fit
applied-conditions: sodium 0.088 M
Measured folding enthalpy, listed per entry.

Q: If you can, please state the reported folding enthalpy value of GCTGACGAAAGTCGCAGC ((((((....)))..))) .
Ans: -16.7 kcal/mol

Q: If you can, please state the reported folding enthalpy value of GAGCGGGGAAACCCGCCC (.(((((....))))).) .
Ans: -8.26 kcal/mol

Q: If you can, please state the reported folding enthalpy value of GCGTCAGGAAACCGACGC (((((.(....).))))) .
Ans: -32.9 kcal/mol

Q: If you can, please state the reported folding enthalpy value of GATCGAAAATTCGATC ((((((....)))))) .
Ans: -33.9 kcal/mol

###

Measured Tm, listed per entry.
measurement-notes: melting temperature; fluorescence melt of hairpins on a sequencing array, two-state fit, raised by 9.35 °C to match UV melts
applied-conditions: sodium 0.088 M
Numeric only. Scale: °C

Reference set (4 entries):
INSERT INTO results (sequence_input, experimental_endpoint, unit_tag, reported_value) VALUES
  ('CGTTTACGGAAACGTACG (((..(((....))))))', 'Tm', '°C', 40.1),
  ('GGTTTGGGAAACTGAACC ((((..(....)..))))', 'Tm', '°C', 35.1),
  ('GCCGAGCGAAAGCCCCGC ((.(.((....)).).))', 'Tm', '°C', 32.2),
  ('GCAAATGAAAATTTGC ((((((....))))))', 'Tm', '°C', 52.3);

Q: If you can, please state the reported Tm value of GATCGCAACTGCGATC ((((((....)))))) .
Ans: 69.2

Q: If you can, please state the reported Tm value of GCCCGTCGAAAGACAGGC (((.(((....))).))) .
Ans: 55.3

Q: If you can, please state the reported Tm value of GGATTTCCGAAAGGATCC (((..(((....)))))) .
Ans: 34.2

###

measurement-notes: melting temperature; fluorescence melt of hairpins on a sequencing array, two-state fit, raised by 9.35 °C to match UV melts
applied-conditions: sodium 0.088 M
Measured Tm, listed per entry.
Numeric only. Scale: °C

Reference set (2 entries):
INSERT INTO results (sequence_input, unit_tag, reported_value) VALUES
  ('GGAAATCCGAAAGGATCC (((..(((....))))))', '°C', 35.4),
  ('GTACGTGGAAACACGTAC (((((((....)))))))', '°C', 63.8);

Q: If you can, please state the reported Tm value of GAAGGCGAAAGCCGTTTC ((((((....)))..))) .
Ans: 39

Q: If you can, please state the reported Tm value of GATCGCCTTTGCGATC ((((((....)))))) .
Ans: 67.8

###

measurement-notes: folding enthalpy; higher = less favourable; fluorescence melt of hairpins on a sequencing array, two-state fit
applied-conditions: sodium 0.088 M
Measured folding enthalpy, listed per entry.
Numeric only. Scale: kcal/mol

INSERT INTO assay_data (sequence_input, reported_value) VALUES
  ('GACTGACGAAAGTCTGTC (((.(((....))).)))', -36.7),
  ('GTATGCCGAAAGGCTAC (((.(((....))))))', -13.1),
  ('GAAGCGGAAACGCTTC ((((((....))))))', -33.6),
  ('GTCGTAACGAAAGTTGAC (((..(((....))))))', -22.4),
  ('GCAATCGAAAGATCTGC ((((((....))).)))', -18);

Q: If you can, please state the reported folding enthalpy value of GATCAACCGGTTGATC ((((((....)))))) .
Ans: -53.5

Q: If you can, please state the reported folding enthalpy value of GATCACGAAAGTGTAATC ((((((....)))..))) .
Ans: -10.3

Q: If you can, please state the reported folding enthalpy value of GACTCGGGAAACCAAGTC ((((.((....)).)))) .
Ans: -25

Q: If you can, please state the reported folding enthalpy value of GACCGCGGAAACGTGGTC ((((.((....)).)))) .
Ans: -44.8

Q: If you can, please state the reported folding enthalpy value of GAAAGACGAAAGTCCTTC (((.(((....))).))) .
Ans: -15.6

###

measurement-notes: melting temperature; fluorescence melt of hairpins on a sequencing array, two-state fit, raised by 9.35 °C to match UV melts
applied-conditions: sodium 0.088 M
experimental-endpoint: Tm (°C)
Numeric only. Scale: °C

Reference set (5 entries):
INSERT INTO assay_data (sequence_input, reported_value) VALUES
  ('GAGTCAGGAAACTGACCC (.(((((....))))).)', 40.5),
  ('GGGTACGAAAGTAATCCC ((((((....)))..)))', 39),
  ('ACGATGAAAATCGT (((((....)))))', 51),
  ('GATCAAGCAATTGATC ((((((....))))))', 48.8),
  ('GATCATAGCTATGATC ((((((....))))))', 50.7);

With those in mind, consider the next sequence.
Q: If you can, please state the reported Tm value of CGCTCACGGAAACGTGCG (((..(((....)))))) .
Ans: 39.6

###

measurement-notes: melting temperature; fluorescence melt of hairpins on a sequencing array, two-state fit, raised by 9.35 °C to match UV melts
applied-conditions: sodium 0.088 M
Parameter class (string): assigned from measured Tm. Ranges: bin 0: < 40 °C; bin 1: ≥ 40 °C and < 50 °C; bin 2: ≥ 50 °C

Q: Pick a category. Item: GGGTAGGGAAACCTACCC (((((((....)))))))
Ans: bin 2

Q: Pick a category. Item: GGACTGGGAAACCAATCC (((.(((....))).)))
Ans: bin 0

Q: Pick a category. Item: GATCACACGTGTGATC ((((((....))))))
Ans: bin 2

Q: Pick a category. Item: GCGGACGAAAGTCCCCGC ((((((....)))..)))
Ans: bin 1

Q: Pick a category. Item: GTCGAAGGAAACTTCAAC ((.((((....)))).))
Ans: bin 0

Q: Pick a category. Item: AAAGTGAAAACTTT (((((....)))))
Ans: bin 0

Q: Pick a category. Item: GTAGCGGGAAACCGCTGC (.(((((....))))).)
Ans: bin 2

Q: Pick a category. Item: GACCCCGAAAGGGAGTC ((((((....))).)))
Ans: bin 2

Q: Pick a category. Item: GATCTGACAGCAGATC ((((((....))))))
Ans: bin 1

Q: Pick a category. Item: GTAGCTCGAAAGAGATAC (((.(((....))).)))
Ans: bin 2

Q: Pick a category. Item: AATGTGAAAACATT (((((....)))))
Ans: bin 0

Q: Pick a category. Item: GCCATTCGAAAGAAGGGC (((.(((....))).)))
Ans: bin 2

Q: Pick a category. Item: GATCTTTTTGAAGATC ((((((....))))))
Ans: bin 1

Q: Pick a category. Item: GGTCCACCGAAAGGTACC (((..(((....))))))
Ans: bin 0

Q: Pick a category. Item: GTGGCTGGAAACGGCCAC (((((.(....).)))))
Ans: bin 2

Q: Pick a category. Item: GGCACCGAAAGGTAGGCC ((((((....)))..)))
Ans: bin 2

Q: Pick a category. Item: GCCGTTACGAAAGTAGGC (((..(((....))))))
Ans: bin 2
